system: penicillin-resistant Staphylococcus aureus strain; assay: Antibacterial activity in combination with benzyl penicillin, modified microdilution technique; conditions: Table 4; concentration of benzyl penicillin combined with the compound
Measured Effective Combination Concentrations: Units/mL Benzyl Penicillin by item
Just the number in Units/mL, nothing appended.

# example entries with known answers
>  <Compound>
COC1(OC)C2C(C(=O)OC(c3ccccc3)c3ccccc3)=C(S(=O)(=O)c3ccccc3)CC2C1C(C)O (stereo not drawn)

>  <Value Reported>
20

$$$$
>  <Compound>
O=C(OC(c1ccccc1)c1ccccc1)C1=C([S+]([O-])c2ccc([N+](=O)[O-])cc2)CC2CC(=O)C12 (stereo not drawn)

>  <Value Reported>
5.0

$$$$

// query Effective Combination Concentrations: Units/mL Benzyl Penicillin value for entry O=C(O)C1=C([S+]([O-])c2ccc([N+](=O)[O-])cc2)CC2CC(=O)C12 (stereo not drawn)
20

Similarly, C[C@H](O)[C@H]1C(=O)[C@@H]2C(C(=O)OC(c3ccccc3)c3ccccc3)=C([S+]([O-])c3ccccc3)C[C@@H]21 (relative stereo) ?
10

Similarly, O=C(OC(c1ccccc1)c1ccccc1)C1=CCC2C1C(=O)C2(Cl)C(O)c1ccccc1 (stereo not drawn) ?
10

Another compound to look at: CC(=O)NCCSC1=C(C(=O)OCc2cccc3ccccc23)C2C(=O)CC2C1 (stereo not drawn)
20
